Attribution: ChEMBL document CHEMBL4706479

# subject.of.test: UniProtKB Q12809
# experimental.protocol: Displacement of [3H]-dofetilide from human ERG (unknown origin) at 10 uM relative to control
# recorded.conditions: probe [3H]-dofetilide
attribute.measured: inhibition at 10 µM (%)
Write it as a number; the unit % goes unstated.

**Q:** Dear colleague, I am looking for the recorded inhibition at 10 µM of the following compound: `O=C(c1ccc(F)c(Cl)c1)N1CCC(F)(CNCCOc2ccccn2)CC1`
**A:** 16.2

###

# experimental.protocol: Aqueous solubility of compound in simulated gastric fluid at 200 uM
# Format: physicochemical
attribute.measured: solubility at 200 µM (µM)
Write it as a number; the unit µM goes unstated.

**Q:** Dear colleague, I am looking for the recorded solubility at 200 µM of the following compound: `O=C(c1ccc(F)c(Cl)c1)N1CCC(F)(CNCCOc2ccccn2)CC1`
**A:** 200

###

# experimental.protocol: in vitro
# recorded.conditions: human, Caco-2, pH 6.5
attribute.measured: Papp A→B (×10⁻⁶ cm/s)
Write it as a number; the unit ×10⁻⁶ cm/s goes unstated.

**Q:** Dear colleague, I am looking for the recorded Papp A→B of the following compound: `O=C(c1ccc(F)c(Cl)c1)N1CCC(F)(CNCCOc2ccccn2)CC1`
**A:** 25.9

###

# subject.of.test: hERG (KCNH2) (Homo sapiens)
# Sequence (Q12809 whole entry): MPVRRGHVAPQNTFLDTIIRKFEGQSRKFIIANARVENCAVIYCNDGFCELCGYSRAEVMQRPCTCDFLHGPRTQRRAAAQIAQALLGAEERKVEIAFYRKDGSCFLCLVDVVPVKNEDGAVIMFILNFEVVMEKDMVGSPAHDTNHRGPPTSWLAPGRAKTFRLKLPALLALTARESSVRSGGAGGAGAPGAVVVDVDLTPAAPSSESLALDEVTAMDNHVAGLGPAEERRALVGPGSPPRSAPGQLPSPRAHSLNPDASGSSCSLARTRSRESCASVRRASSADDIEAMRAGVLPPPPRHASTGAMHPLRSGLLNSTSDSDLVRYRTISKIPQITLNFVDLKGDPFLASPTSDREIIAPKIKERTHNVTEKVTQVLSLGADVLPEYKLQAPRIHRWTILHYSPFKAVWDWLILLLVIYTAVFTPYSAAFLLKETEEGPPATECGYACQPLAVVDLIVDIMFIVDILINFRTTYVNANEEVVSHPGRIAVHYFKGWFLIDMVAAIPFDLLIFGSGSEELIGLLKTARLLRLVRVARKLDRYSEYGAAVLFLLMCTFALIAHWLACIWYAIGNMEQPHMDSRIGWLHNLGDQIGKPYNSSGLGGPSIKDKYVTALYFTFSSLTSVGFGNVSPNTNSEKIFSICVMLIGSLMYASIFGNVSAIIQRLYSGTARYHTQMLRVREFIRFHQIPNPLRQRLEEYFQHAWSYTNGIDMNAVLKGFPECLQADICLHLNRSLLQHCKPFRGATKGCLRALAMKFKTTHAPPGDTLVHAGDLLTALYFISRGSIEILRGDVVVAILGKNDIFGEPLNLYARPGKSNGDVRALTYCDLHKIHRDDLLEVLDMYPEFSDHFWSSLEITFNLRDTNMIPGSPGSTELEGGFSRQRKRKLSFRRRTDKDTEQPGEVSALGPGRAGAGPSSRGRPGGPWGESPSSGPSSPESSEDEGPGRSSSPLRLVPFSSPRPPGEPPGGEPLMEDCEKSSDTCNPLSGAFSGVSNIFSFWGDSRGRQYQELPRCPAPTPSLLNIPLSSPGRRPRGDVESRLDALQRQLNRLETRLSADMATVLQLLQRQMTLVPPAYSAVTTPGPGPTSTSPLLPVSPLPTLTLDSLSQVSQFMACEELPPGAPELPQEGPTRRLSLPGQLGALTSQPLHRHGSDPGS
# experimental.protocol: Inhibition of human ERG at 10 uM by patch clamp technique relative to control
attribute.measured: inhibition at 10 µM (%)
Write it as a number; the unit % goes unstated.

**Q:** Dear colleague, I am looking for the recorded inhibition at 10 µM of the following compound: `O=C(c1ccc(F)c(Cl)c1)N1CCC(F)(CNCCOc2ccccn2)CC1`
**A:** 46.5

###

# subject.of.test: CYP2D6 (Homo sapiens)
# Sequence (P10635 whole entry): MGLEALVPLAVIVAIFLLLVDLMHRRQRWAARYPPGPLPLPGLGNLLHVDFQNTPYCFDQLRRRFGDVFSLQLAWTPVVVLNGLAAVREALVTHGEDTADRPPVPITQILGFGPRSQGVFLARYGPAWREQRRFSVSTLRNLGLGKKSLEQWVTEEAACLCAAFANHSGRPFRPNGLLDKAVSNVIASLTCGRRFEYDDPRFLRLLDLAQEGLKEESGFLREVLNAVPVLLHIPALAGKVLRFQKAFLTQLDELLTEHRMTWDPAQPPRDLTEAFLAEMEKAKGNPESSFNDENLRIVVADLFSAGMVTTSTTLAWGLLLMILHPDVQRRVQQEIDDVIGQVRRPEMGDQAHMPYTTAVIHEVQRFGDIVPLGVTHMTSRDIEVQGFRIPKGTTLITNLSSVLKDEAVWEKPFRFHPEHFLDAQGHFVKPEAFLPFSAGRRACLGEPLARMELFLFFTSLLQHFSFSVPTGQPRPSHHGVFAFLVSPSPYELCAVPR
# experimental.protocol: Inhibition of human recombinant CYP2D6 at 10 uM relative to control
# Format: ADME
attribute.measured: inhibition at 10 µM (%)
Write it as a number; the unit % goes unstated.

**Q:** For CYP2D6 (Homo sapiens), provide inhibition at 10 µM of `O=C(c1ccc(F)c(Cl)c1)N1CCC(F)(CNCCOc2ccccn2)CC1` please.
**A:** 15.9

###

# experimental.protocol: Protein binding in human plasma
# Type: ADME, cell-free
# recorded.conditions: read-out: PPB (converted)
attribute.measured: fraction unbound
Note: the reply should be a number with no unit written.

**Q:** Dear colleague, I am looking for the recorded fraction unbound of the following compound: `O=C(c1ccc(F)c(Cl)c1)N1CCC(F)(CNCCOc2ccccn2)CC1`
**A:** 0.068

###

# experimental.protocol: Aqueous solubility of compound in simulated intestinal fluid at 200 uM
# Format: physicochemical
attribute.measured: solubility at 200 µM (µM)
Write it as a number; the unit µM goes unstated.

**Q:** Dear colleague, I am looking for the recorded solubility at 200 µM of the following compound: `O=C(c1ccc(F)c(Cl)c1)N1CCC(F)(CNCCOc2ccccn2)CC1`
**A:** 192

###

Emax values, listed per item
# subject.of.test: 5-hydroxytryptamine receptor 1A (Homo sapiens) (UniProt P08908)
# experimental.protocol: Biased agonist activity at human recombinant 5-HT1A receptor stably expressed in CHO-K1 cells assessed as inhibition of forskolin-induced cAMP accumulation after 40 mins by LANCE Ultra cAMP kit-based TR-FRET assay relative to serotonin
# Type: functional, cell-based
# recorded.conditions: filed as partial agonist
Write it as a number; the unit % goes unstated.

Please review the following examples before continuing.
>  <compound>
Cc1cnc(OCCNCC2(F)CCN(C(=O)c3ccc(F)c(Cl)c3)CC2)nc1

>  <Emax (%)>
41

$$$$
>  <compound>
O=C(c1ccc(F)c(Cl)c1)N1CCC(F)(CNCCCc2ccccn2)CC1

>  <Emax (%)>
74

$$$$

**Q:** Dear colleague, I am looking for the recorded Emax of the following compound: CCCN(CCC)C1CCc2cccc(O)c2C1 (racemic) [8-OH-DPAT]
**A:** 63

**Q:** Dear colleague, I am looking for the recorded Emax of the following compound: `O=C(c1ccc(F)c(Cl)c1)N1CCC(F)(CNCCSc2ccccc2)CC1`
**A:** 71

###

# subject.of.test: CYP3A4 (Homo sapiens, UniProt P08684)
# Sequence (P08684 whole entry): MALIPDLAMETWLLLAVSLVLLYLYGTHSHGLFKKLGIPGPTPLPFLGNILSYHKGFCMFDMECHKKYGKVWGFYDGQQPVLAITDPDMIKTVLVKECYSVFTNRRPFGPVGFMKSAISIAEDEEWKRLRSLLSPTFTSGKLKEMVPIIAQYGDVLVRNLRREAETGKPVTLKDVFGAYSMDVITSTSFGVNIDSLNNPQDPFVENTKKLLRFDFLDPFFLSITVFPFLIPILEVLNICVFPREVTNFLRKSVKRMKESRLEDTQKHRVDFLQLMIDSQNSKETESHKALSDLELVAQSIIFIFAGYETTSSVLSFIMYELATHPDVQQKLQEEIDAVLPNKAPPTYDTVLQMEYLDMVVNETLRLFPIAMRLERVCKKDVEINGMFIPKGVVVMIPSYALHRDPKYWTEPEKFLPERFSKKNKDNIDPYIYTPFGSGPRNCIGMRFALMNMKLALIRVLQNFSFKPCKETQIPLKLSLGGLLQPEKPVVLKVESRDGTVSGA
# experimental.protocol: Inhibition of human recombinant CYP3A4 at 10 uM relative to control
# Type: ADME
attribute.measured: inhibition at 10 µM (%)
Write it as a number; the unit % goes unstated.

**Q:** Dear colleague, I am looking for the recorded inhibition at 10 µM of the following compound: `O=C(c1ccc(F)c(Cl)c1)N1CCC(F)(CNCCOc2ccccn2)CC1`
**A:** 23.2

###

# subject.of.test: UniProt:P14416
# Sequence (P14416 whole entry): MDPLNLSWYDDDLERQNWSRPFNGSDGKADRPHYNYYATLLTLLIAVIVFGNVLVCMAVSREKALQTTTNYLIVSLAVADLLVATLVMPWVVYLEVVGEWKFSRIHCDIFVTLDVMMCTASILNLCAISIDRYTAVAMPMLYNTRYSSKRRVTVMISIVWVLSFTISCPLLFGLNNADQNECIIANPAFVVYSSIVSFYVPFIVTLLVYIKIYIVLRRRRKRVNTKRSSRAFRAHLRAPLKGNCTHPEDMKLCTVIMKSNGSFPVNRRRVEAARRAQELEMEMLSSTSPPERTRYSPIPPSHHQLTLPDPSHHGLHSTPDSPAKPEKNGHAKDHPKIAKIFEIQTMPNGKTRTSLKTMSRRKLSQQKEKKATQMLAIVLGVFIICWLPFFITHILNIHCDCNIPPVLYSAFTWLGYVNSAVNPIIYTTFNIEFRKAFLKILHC
# experimental.protocol: Displacement of [3H]-methylspiperone from recombinant human D2 receptor stably expressed in CHO-K1 cell membranes measured after 60 mins by microbeta2 scintillation counting method
Ki values, listed per item

Please review the following examples before continuing.
>  <entry.smiles>
O=C(c1ccc(F)c(Cl)c1)N1CCC(F)(CNCCOc2cncnc2)CC1

>  <subject.of.test>
UniProt:P14416

>  <Ki>
> 1 µM

$$$$
>  <entry.smiles>
O=C(c1ccc(F)c(Cl)c1)N1CCC(F)(CNCCSc2ccccc2)CC1

>  <subject.of.test>
UniProt:P14416

>  <Ki>
> 1 µM

$$$$
>  <entry.smiles>
O=C(c1ccc(F)c(Cl)c1)N1CCC(F)(CNCCOc2ccncc2)CC1

>  <subject.of.test>
UniProt:P14416

>  <Ki>
> 1 µM

$$$$
>  <entry.smiles>
Cc1cnc(CNCC2(F)CCN(C(=O)c3ccc(F)c(Cl)c3)CC2)nc1

>  <subject.of.test>
UniProt:P14416

>  <Ki>
> 1 µM

$$$$
>  <entry.smiles>
O=C(c1ccc(F)c(Cl)c1)N1CCC(F)(CNCCOc2ccnnc2)CC1

>  <subject.of.test>
UniProt:P14416

>  <Ki>
> 1 µM

$$$$

# next molecule below
**Q:** Dear colleague, I am looking for the recorded Ki of the following molecule: `O=C(c1ccc(Cl)c(Cl)c1)N1CCC(F)(CNCCOc2ccccc2)CC1`
**A:** > 1 µM

###

# experimental.protocol: Permeability of compound across basolateral to apical side in human Caco-2 cells at pH 7.4
# Type: ADME, cell-based
# recorded.conditions: Caco-2, pH 7.4, read-out: permeability
attribute.measured: Papp B→A (×10⁻⁶ cm/s)
Write it as a number; the unit ×10⁻⁶ cm/s goes unstated.

>  <compound>
CC(C)NCC(O)COc1cccc2ccccc12 (configuration not stated)

>  <Papp B→A [×10⁻⁶ cm/s]>
27.4

$$$$

# next compound below
**Q:** Dear colleague, I am looking for the recorded Papp B→A of the following compound: `O=C(c1ccc(F)c(Cl)c1)N1CCC(F)(CNCCOc2ccccn2)CC1`
**A:** 22.4

###

EC50 values, listed per item
# subject.of.test: UniProtKB P08908
# experimental.protocol: Biased agonist activity at human recombinant 5-HT1A receptor stably expressed in CHO-K1 cells assessed as increase in ERK1/2 phosphorylation levels incubated for 15 mins by Alphalisa assay
# Type: cell-based
Write it as a number; the unit nM goes unstated.

>  <entry.smiles>
O=C(c1ccc(F)c(Cl)c1)N1CCC(F)(CNCCSc2ccccc2)CC1

>  <EC50 [nM]>
170

$$$$

# next molecule below
**Q:** Dear colleague, I am looking for the recorded EC50 of the following molecule: `Cc1cnc(CNCC2(F)CCN(C(=O)c3ccc(F)c(Cl)c3)CC2)nc1`
**A:** 4.68

###

# subject.of.test: UniProtKB P08908
# Sequence (whole entry): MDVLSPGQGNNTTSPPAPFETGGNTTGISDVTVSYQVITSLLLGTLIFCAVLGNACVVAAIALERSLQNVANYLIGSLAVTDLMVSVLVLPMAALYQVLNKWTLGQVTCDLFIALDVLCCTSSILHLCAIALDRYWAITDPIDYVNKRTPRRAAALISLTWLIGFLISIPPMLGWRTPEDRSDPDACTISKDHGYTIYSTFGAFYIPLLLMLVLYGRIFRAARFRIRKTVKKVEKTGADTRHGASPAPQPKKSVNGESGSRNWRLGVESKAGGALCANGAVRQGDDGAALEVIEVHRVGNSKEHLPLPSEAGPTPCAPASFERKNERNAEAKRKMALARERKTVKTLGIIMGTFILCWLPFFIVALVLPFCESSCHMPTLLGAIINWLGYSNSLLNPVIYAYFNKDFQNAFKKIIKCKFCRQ
# experimental.protocol: Biased agonist activity at human recombinant 5-HT1A receptor stably expressed in CHO-K1 cells assessed as increase in ERK1/2 phosphorylation levels incubated for 15 mins by Alphalisa assay relative to serotonin
# Type: cell-based
# recorded.conditions: filed as agonist
attribute.measured: Emax
Output should be the measured figure followed by the unit it is expressed in.

>  <molecule>
O=C(c1ccc(F)c(Cl)c1)N1CCC(F)(CNCCOc2cnccn2)CC1

>  <reported>
100%

$$$$

**Q:** Dear colleague, I am looking for the recorded Emax of the following molecule: `O=C(c1ccc(F)c(Cl)c1)N1CCC(F)(CNCCNc2ccccc2)CC1`
**A:** 81%

**Q:** Dear colleague, I am looking for the recorded Emax of the following molecule: `O=C(c1ccc(Cl)c(Cl)c1)N1CCC(F)(CNCCOc2ccccn2)CC1`
**A:** 85%

**Q:** Dear colleague, I am looking for the recorded Emax of the following molecule: `O=C(c1ccc(F)c(Cl)c1)N1CCC(F)(CNCCOc2cccnc2)CC1`
**A:** 99%

**Q:** Dear colleague, I am looking for the recorded Emax of the following molecule: CCCN(CCC)C1CCc2cccc(O)c2C1 (racemic)
**A:** 93%

**Q:** Dear colleague, I am looking for the recorded Emax of the following molecule: `O=C(c1ccc(F)c(Cl)c1)N1CCC(F)(CNCCSc2ccccn2)CC1`
**A:** 84%

**Q:** Dear colleague, I am looking for the recorded Emax of the following molecule: `O=C(c1ccc(F)c(Cl)c1)N1CCC(F)(CNCCCc2ccccc2)CC1`
**A:** 77%
